Items are presented alongside their recorded TGI.
System: A498 renal
Assay: NCI tumour cell line growth inhibition, 48 h

Worked cases, TGI given:
Molecule	Assayed Target	Recorded Result
C/C(=N\NC(=S)N1CCCCC1)c1ccccn1	A498 renal	2.32 µM
CC1=CC(=O)C2=C(C)CCC3C(C)C(=O)OC3C12 (centres undefined)	A498 renal	> 100 µM
COc1ccc(N=NC(=O)NC(Cc2ccccc2)C(=O)O)cc1 (centres undefined)	A498 renal	> 100 µM

Now let's try a different one.
For CCC(C)CCOC(=O)c1ccc(N=Cc2ccc(C=Nc3ccc(C(=O)OCCC(C)CC)cc3)cc2)cc1 (centres undefined) , what is its reported TGI?
> 100 µM
